tested on: Highly purified T cells; assay: T cell proliferation induced by anti-CD28 mAb + PMA (BrdU incorporation); format: cell-based, Human; details: Homo sapiens, T-cell; Table II; read-out: IC50 in µM of pteridine derivative aCD28
Known IC50 of a selection of molecules
Write the answer as a number in µM, unit excluded.

What value of measured IC50 is listed for COc1ccc(-c2cnc3nc(N)nc(N4CCNCC4)c3n2)cc1OC [Compound 49] ? 4.5

Attention now turns to another entry.
What value of measured IC50 is listed for CCCCCOc1nc(N)nc2ncc(C=Cc3ccccc3)nc12 [Compound 1, 2-amino-4-pentoxy-6-styrylpteridine] ? 80

----------
system: Peripheral blood mononuclear cells (PBMC); assay: Mixed lymphocyte reaction (MLR), [3H]-thymidine incorporation; type: cell-based; settings: Homo sapiens, untitled structure table, no unit printed there, same values in Table II as IC50 in µM, read-out: MLR
MEASURED ATTRIBUTE: IC50 (µM)
Write the answer as a number in µM, unit excluded.

Here is how some molecules turned out for IC50.
What value of measured IC50 is listed for Nc1nc(N2CCOCC2)c2nc(-c3ccccc3)cnc2n1 ? 15

What value of measured IC50 is listed for CN1CCN(c2nc(N)nc3ncc(-c4ccc(Cl)cc4)nc23)CC1 ? 4.8

What value of measured IC50 is listed for Nc1nc(N2CCNCC2)c2nc(-c3ccc(Cl)cc3)cnc2n1 ? 2

What value of measured IC50 is listed for CCCN(CCC)c1nc(N)nc2ncc(-c3ccc(Cl)cc3)nc12 ? 13

What value of measured IC50 is listed for CCCN(CCC)c1nc(N)nc2ncc(-c3ccccc3)nc12 ? 15

New cases:
What value of measured IC50 is listed for CN1CCN(c2nc(N)nc3ncc(-c4ccccc4)nc23)CC1 ? 15

What value of measured IC50 is listed for COc1ccc(-c2cnc3nc(N)nc(N4CCN(C)CC4)c3n2)cc1 ? 12.3

What value of measured IC50 is listed for CCN(CC)c1nc(N)nc2ncc(-c3ccc(OC)c(OC)c3)nc12 ? 0.08

What value of measured IC50 is listed for CCCCCOc1nc(N)nc2ncc(C=Cc3ccccc3)nc12 ? 15

What value of measured IC50 is listed for COc1ccc(-c2cnc3nc(N)nc(N(C)C)c3n2)cc1 ? 12

----------
test system: Highly purified T cells; test: T cell proliferation induced by anti-CD28 mAb + PMA (BrdU incorporation); assay type: cell-based, Human; settings: Homo sapiens, T-cell; Table II; read-out: IC50 in µM of pteridine derivative aCD28
MEASURED ATTRIBUTE: IC50 (µM)
Write the answer as a number in µM, unit excluded.

Here is how some compounds turned out for IC50.
What value of measured IC50 is listed for COc1ccc(-c2cnc3nc(N)nc(N(C)C)c3n2)cc1 ? 7.5

What value of measured IC50 is listed for CCCCCOc1nc(N)nc2ncc(C(Br)C(Br)c3ccccc3)nc12 (centres unmarked) ? 12

What value of measured IC50 is listed for COCCOCc1cnc2nc(N)nc(N)c2n1 ? 18

New cases:
What value of measured IC50 is listed for COc1ccc(-c2cnc3nc(N)nc(N4CCN(C)CC4)c3n2)cc1OC ? 6.5

----------
Known IC50 of a selection of compounds
tested on: Peripheral blood mononuclear cells (PBMC); test: Mixed lymphocyte reaction (MLR), [3H]-thymidine incorporation; type: cell-based; conditions: Homo sapiens, untitled structure table, no unit printed there, same values in Table II as IC50 in µM, read-out: MLR
Write the answer as a number in µM, unit excluded.

Here is how some compounds turned out for IC50.
For Peripheral blood mononuclear cells (PBMC), provide IC50 of Nc1nc(N2CCOCC2)c2nc(-c3ccc(Cl)cc3)cnc2n1 [Compound 34] please. 12

For Peripheral blood mononuclear cells (PBMC), provide IC50 of COc1nc2nc(N)nc(OC)c2nc1C=Cc1ccccc1 [Compound 3] please. 25

For Peripheral blood mononuclear cells (PBMC), provide IC50 of COc1ccc(-c2cnc3nc(N)nc(N4CCN(C)CC4)c3n2)cc1OC [Compound 44] please. 2

Attention now turns to another entry.
For Peripheral blood mononuclear cells (PBMC), provide IC50 of Nc1nc(N2CCCCC2)c2nc(-c3ccccc3)cnc2n1 [Compound 37, 2-amino-4-piperidino-6-phenylpteridine] please. 15

----------
test system: Highly purified T cells; experiment: T cell proliferation induced by anti-CD28 mAb + PMA (BrdU incorporation); assay type: cell-based, Human; conditions: Homo sapiens, T-cell; Table II; read-out: IC50 in µM of pteridine derivative aCD28
Binarize IC50 at 20 µM; below is 1, at or above is -1.

Past entries and their recorded results:
Check if IC50 falls below 20 µM for Nc1nc(N2CCNCC2)c2nc(-c3ccccc3)cnc2n1 . 1

Check if IC50 falls below 20 µM for CCCN(CCC)c1nc(N)nc2ncc(-c3ccc(OC)c(OC)c3)nc12 . 1

Check if IC50 falls below 20 µM for CCCN(CCC)c1nc(N)nc2ncc(-c3ccccc3)nc12 . -1

Check if IC50 falls below 20 µM for Nc1nc(NCCO)nc2ncc(-c3ccccc3)nc12 . -1

Check if IC50 falls below 20 µM for Nc1nc(N)c2nc(CNCc3ccccc3)cnc2n1 . -1

New cases:
Check if IC50 falls below 20 µM for Cc1nc2nc(N)nc(N)c2nc1-c1ccccc1 . -1

Check if IC50 falls below 20 µM for COc1nc(N)nc2ncc(C(O)C(C)O)nc12 (stereo not drawn) . -1

Check if IC50 falls below 20 µM for Nc1nc(N2CCCCC2)c2nc(-c3ccc(Cl)cc3)cnc2n1 . -1

Check if IC50 falls below 20 µM for COc1ccc(-c2cnc3nc(N)nc(N)c3n2)cc1 . -1

Check if IC50 falls below 20 µM for COc1ccc(-c2cnc3nc(N)nc(N4CCOCC4)c3n2)cc1OC . 1

Check if IC50 falls below 20 µM for CCCN(CCC)c1nc(N)nc2ncc(-c3ccc(Cl)cc3)nc12 . 1

Check if IC50 falls below 20 µM for COc1ccc(-c2cnc3nc(N)nc(N(Cc4ccccc4)Cc4ccccc4)c3n2)cc1 . 1

----------
tested on: Highly purified T cells; assay: T cell proliferation induced by anti-CD28 mAb + PMA (BrdU incorporation); format: cell-based, Human; conditions: Homo sapiens, T-cell; Table II; read-out: IC50 in µM of pteridine derivative aCD28
Known log10(IC50) of a selection of compounds
Note the log scale: values are log10 of IC50 expressed in µM.

Here is how some compounds turned out for log10(IC50).
For Highly purified T cells, provide log10(IC50) of CCN(CC)c1nc(N)nc2ncc(-c3ccccc3)nc12 please. 1.30

For Highly purified T cells, provide log10(IC50) of CCCN(CCC)c1nc(N)nc2ncc(-c3ccc(OC)cc3)nc12 please. 0.45

For Highly purified T cells, provide log10(IC50) of COc1ccc(-c2cnc3nc(N)nc(N(Cc4ccccc4)Cc4ccccc4)c3n2)cc1OC please. 0.51

New cases:
For Highly purified T cells, provide log10(IC50) of COc1nc2nc(N)nc(OC)c2nc1C=Cc1ccccc1 please. 2.00

For Highly purified T cells, provide log10(IC50) of Nc1nc(N2CCOCC2)c2nc(-c3ccccc3)cnc2n1 please. 1.30

For Highly purified T cells, provide log10(IC50) of CN1CCN(c2nc(N)nc3ncc(-c4ccccc4)nc23)CC1 please. 1.40

For Highly purified T cells, provide log10(IC50) of COc1ccc(-c2cnc3nc(N)nc(N4CCNCC4)c3n2)cc1 please. 0.65

For Highly purified T cells, provide log10(IC50) of Nc1nc(N2CCCCC2)c2nc(-c3ccccc3)cnc2n1 please. 1.30

----------
test system: Highly purified T cells; test: T cell proliferation induced by anti-CD3 mAb + PMA (BrdU incorporation); type: cell-based, Human; conditions: Homo sapiens, T-cell; untitled structure table; no unit printed there, same values in Table II as IC50 in µM; read-out: aCD3
MEASURED ATTRIBUTE: IC50 (µM)
Write the answer as a number in µM, unit excluded.

Here is how some molecules turned out for IC50.
What value of measured IC50 is listed for COc1ccc(-c2cnc3nc(N)nc(N(Cc4ccccc4)Cc4ccccc4)c3n2)cc1 ? 20

What value of measured IC50 is listed for Cc1ccc(-c2cnc3nc(N)nc(N(C)C)c3n2)cc1 ? 4.5

What value of measured IC50 is listed for CCCN(CCC)c1nc(N)nc2ncc(-c3ccc(OC)cc3)nc12 ? 5.7

What value of measured IC50 is listed for CCCN(CCC)c1nc(N)nc2ncc(-c3ccc(Cl)cc3)nc12 ? 9.7

What value of measured IC50 is listed for Nc1nc(N2CCOCC2)c2nc(-c3ccc(Cl)cc3)cnc2n1 ? 20

New cases:
What value of measured IC50 is listed for Nc1nc(N(Cc2ccccc2)Cc2ccccc2)c2nc(-c3ccccc3)cnc2n1 ? 25

What value of measured IC50 is listed for Nc1nc(N)c2nc(CNCc3ccccc3)cnc2n1 ? 123
